Test system: OVCAR-8 ovarian
Assay: NCI-60 one-dose screen, 48 h (100 = growth as untreated, 0 = no growth, -100 = all killed)
Details: 10 µM unless noted
This is part of a sample that, as a whole, favours compounds with a hit. Of some 83,000 tested, about 20% had one in any assay.
PARAMETER MEASURED: growth (%)
Entry rule: numbers only, all in %.

1. O=C(O)c1[nH]c(=O)[nH]c(=O)c1F :: 81.7
2. CC(=O)O[C@H]1CC[C@H]2[C@@H]3CC[C@H]4CC=C(C)C[C@]4(C)[C@H]3CC[C@]12C :: 102
3. N#CC1=C(N)Oc2cc3c(cc2C1c1cccs1)OCO3 (stereo not given) :: 35.1
4. O=C(N/N=C/c1ccc([N+](=O)[O-])o1)c1cc([N+](=O)[O-])cc([N+](=O)[O-])c1O :: 89.8
5. C=C=[CH][Sn]([c]1ccccc1)([c]1ccccc1)[c]1ccccc1 :: -30
6. Cc1ccc(N)cc1[As]=[As]c1cc(N)ccc1C (stereo not given) :: -95.3

**Q:** Given the compound O=[N+]([O-])c1ccc(F)c([N+](=O)[O-])c1F , what is its reported growth?
**A:** 104

**Q:** Given the compound CCOC(=O)/C=C(\C)Nc1ccc(N/C(C)=C/C(=O)OCC)c2c1Oc1ccccc1O2 , what is its reported growth?
**A:** 96.7

**Q:** Given the compound CC(=O)[O][Hg][c]1nc2c(c(=O)n(C)c(=O)n2C)n1C , what is its reported growth?
**A:** 95.2

**Q:** Given the compound CC1(C)N=C(N)N=C(N)N1c1ccc(OCCCCOc2ccc(S(=O)(=O)F)cc2)c(Cl)c1 , what is its reported growth?
**A:** 13.5
